B1: BCL2L13 (parent)
chain: QSLDQEILLKVKTEIEEELKSLDK

variants of: B1; assay: protein stability index of a GFP-peptide fusion (GPS, HEK-293T) (PSI 1-6); higher = more stable; settings: c terminus: a fixed tail appended;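 further: lentivirally expressed fusions sorted by FACS into six bins by GFP to DsRed ratio, PSI derived from sequencing read proportions per bin multiplied by bin number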
Grouping by measured protein stability index is done with the following cut points: 1 (below 4), 2 (4 to below 5), 3 (5 or more)

Previously resolved entries follow.
L8A    3
V11Q    3
Q5K    2
S21Y    2
K10L    1

Asked: Tag the class for "L8M"
Given back: 3

Asked: Hey, which category is "Q5H" in, do you know?
Given back: 1

Asked: Category of "K10M" , please.
Given back: 1

Asked: Consider "L9T" . To which protein stability index class does it belong?
Given back: 3

Asked: Just checking, what class would you give "L9F" here?
Given back: 2

Asked: Hello team, could you let me know which band the following variant falls into: "L9V"
Given back: 3

// data source = the supplement of paper PMC10567573
